EXPERIMENTAL_PROTOCOL: Phenomenex Kinetex C18, 150 × 2.1 mm, 1.7 µm, 30 °C, 0.3 mL/min; A: water + 0.1% formic acid; B: acetonitrile + 0.1% formic acid; gradient (min/%B) 0/2 14/100 17/100 17/2 25/2
SETUP_CONDITIONS: stereoisomer not certain
Provide the reported LC retention time of each item.
I only need the number, in min, no unit after it.

Problem: # input compound: CC12CCC(=O)C=C1CCC1C2CCC2(C)C(O)CC(O)C12 (stereo unspecified) ; wanted: its LC retention time
Result: 6.97

Problem: # input compound: CC(O)C1(O)CCC2C3CCC4CC(O)CCC4(C)C3C(=O)CC21C (stereo unspecified) ; wanted: its LC retention time
Result: 8.66

Problem: # input compound: CC12CCC3C(C(O)CC4=CC(=O)CCC43C)C1CCC2=O (stereo unspecified) ; wanted: its LC retention time
Result: 7.78

Problem: # input compound: CC12CCC(=O)C=C1CCC1C2C(O)CC2(C)C1CCC2(O)C(=O)CO (stereo unspecified) ; wanted: its LC retention time
Result: 7.61

Problem: # input compound: CC12CCC(O)CC1=CCC1C2CCC2(C)C(O)C(=O)CC12 (stereo unspecified) ; wanted: its LC retention time
Result: 8.03

Problem: # input compound: CC12CCC3C4=CC(=O)C(=O)C=C4CCC3C1CCC2O (stereo unspecified) ; wanted: its LC retention time
Result: 7.58
